Reference source: patent US11957680B2

The compounds listed here are annotated with their pEC50.
- study-target: wild type PKR (Homo sapiens)
- method-description: PKR (wild type) enzyme AC50 assay, LDH/NADH-coupled, absorbance at 340 nm
- Type: biochemical
- condition-summary: Table 4; AC50, enzyme assay; read-out: PKR WT
pEC50: −log10 of the molar value.

Below, each entry is followed by its recorded pEC50 result.
INSERT INTO assay_data (compound, readout, observed) VALUES
  ('C#CCn1ncc2c3sc(Cc4ccccn4)nc3n(C)c2c1=O', 'pEC50', '> 6.52'),
  ('Cn1ccc(CCn2ncc3c4sc(Cc5cc[nH]n5)nc4n(C)c3c2=O)n1', 'pEC50', '> 6.52'),
  ('Cn1c2nc(Cc3ncsc3C(N)=O)sc2c2cnn(Cc3cccc4[nH]ncc34)c(=O)c21', 'pEC50', '> 6.52'),
  ('Cn1c2nc(Cc3cc[nH]n3)sc2c2cnn(CCc3cscn3)c(=O)c21', 'pEC50', '> 6.52'),
  ('Cn1c2nc(Cc3nnco3)sc2c2cnn(Cc3cccc4[nH]ncc34)c(=O)c21', 'pEC50', '> 6.52'),
  ('C=CCn1ncc2c3sc(Cc4ccccn4)nc3n(C)c2c1=O', 'pEC50', '< 6.10');

Query: Look at this compound and give its reported pEC50. Cn1c2nc(Cc3cccc4[nH]c(=O)[nH]c34)sc2c2cnn(Cc3cccc4[nH]ncc34)c(=O)c21
Result: 6.10 to 6.52

Query: Looking for the measured pEC50 of Cn1c2nc(Cc3cc[nH]c(=O)c3)sc2c2cnn(Cc3cccc4[nH]ncc34)c(=O)c21 , can you help?
Result: > 6.52

Query: Fill blank: measured pEC50 of the compound Cn1ncc2nc(Cn3ncc4c5sc(Cc6cc[nH]n6)nc5n(C)c4c3=O)ccc21 is ____.
Result: > 6.52

----------
- study-target: PKR R510Q (Homo sapiens, UniProt P30613, R510Q)
- Sequence (P30613 whole entry R510Q): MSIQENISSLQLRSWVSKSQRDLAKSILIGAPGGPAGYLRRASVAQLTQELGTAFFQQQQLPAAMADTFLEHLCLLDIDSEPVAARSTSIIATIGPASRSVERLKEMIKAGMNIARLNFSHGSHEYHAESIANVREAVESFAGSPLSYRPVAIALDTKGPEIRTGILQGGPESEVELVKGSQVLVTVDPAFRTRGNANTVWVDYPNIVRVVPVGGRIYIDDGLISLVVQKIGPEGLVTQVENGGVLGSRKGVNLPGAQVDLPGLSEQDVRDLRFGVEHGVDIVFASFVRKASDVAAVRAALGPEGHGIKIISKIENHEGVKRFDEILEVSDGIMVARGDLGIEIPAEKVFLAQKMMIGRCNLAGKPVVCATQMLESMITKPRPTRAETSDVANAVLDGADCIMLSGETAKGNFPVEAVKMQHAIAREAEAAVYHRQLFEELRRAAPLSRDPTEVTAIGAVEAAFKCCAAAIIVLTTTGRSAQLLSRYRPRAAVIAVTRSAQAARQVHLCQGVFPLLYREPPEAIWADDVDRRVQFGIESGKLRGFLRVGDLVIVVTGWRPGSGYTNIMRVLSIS
- method-description: PKR mutant assay (R510Q), AC50, LDH/NADH-coupled, absorbance at 340 nm
- Format: biochemical
- condition-summary: Table 2; enzyme assay; read-out: PK R510Q AC50
Each item that follows carries a reported AC50.

INSERT INTO results (compound, observed) VALUES
  ('Cn1c2nc(Cc3cccc(=O)[nH]3)sc2c2cnn(Cc3cccc4[nH]ncc34)c(=O)c21 [Compound 170]', '< 300 nM'),
  ('COC(=O)C(c1cc[nH]n1)c1nc2c(s1)c1cnn(Cc3cccc4[nH]ncc34)c(=O)c1n2C (stereo not shown) [Compound 171]', '> 800 nM'),
  ('Cc1nc2c(s1)c1cnn(Cc3cccc(N)n3)c(=O)c1n2C [Compound 74]', '< 300 nM');

Shifting focus to the compound that follows.
Query: Need AC50, item Cn1c2nc(Cc3cc[nH]n3)sc2c2cnn(Cc3cccc(C#N)c3)c(=O)c21 [Compound 182]
Result: < 300 nM

----------
As shown below, each of these molecules has a reported AC50 value.
- study-target: PKR R510Q (Homo sapiens, UniProt P30613, R510Q)
- method-description: PKR mutant assay (R510Q), AC50, LDH/NADH-coupled, absorbance at 340 nm
- Format: biochemical
- condition-summary: Table 2; enzyme assay; read-out: PK R510Q AC50

Recorded AC50, per entry:
INSERT INTO measurements (molecule, study_target, readout, observed) VALUES
  ('Cn1c2nc(Cc3cc(C(F)(F)F)[nH]n3)sc2c2cnn(Cc3cccc4[nH]ncc34)c(=O)c21', 'PKR R510Q (Homo sapiens, UniProt P30613, R510Q)', 'AC50', '301 to 800 nM'),
  ('Cc1nc2c(s1)c1cnn(Cc3cccc(O)c3)c(=O)c1n2C', 'PKR R510Q (Homo sapiens, UniProt P30613, R510Q)', 'AC50', '< 300 nM'),
  ('Cc1nc2c(s1)c1cnn(Cc3ccc4[nH]ncc4c3)c(=O)c1n2C', 'PKR R510Q (Homo sapiens, UniProt P30613, R510Q)', 'AC50', '< 300 nM'),
  ('Cc1nc2c(s1)c1cnn(Cc3cccc4[nH]ncc34)c(=O)c1n2C', 'PKR R510Q (Homo sapiens, UniProt P30613, R510Q)', 'AC50', '< 300 nM'),
  ('Cn1c2nc(C(C)(O)c3ccccc3)sc2c2cnn(Cc3cccc4[nH]ncc34)c(=O)c21 (stereo not drawn)', 'PKR R510Q (Homo sapiens, UniProt P30613, R510Q)', 'AC50', '< 300 nM');

Query: Field request: AC50 | item: Cc1nc2c(s1)c1cnn(Cc3cccc(C(=O)O)c3)c(=O)c1n2C
Result: > 800 nM

----------
Entries and their pEC50
- study-target: UniProt P30613
- method-description: PKR (wild type) enzyme AC50 assay, LDH/NADH-coupled, absorbance at 340 nm
- Type: biochemical
- condition-summary: Table 4; AC50, enzyme assay; read-out: PKR WT
pEC50: −log10 of the molar value.

INSERT INTO assay_data (molecule, study_target, readout, observed) VALUES
  ('Cn1c2nc(Cc3cccc4cn[nH]c34)sc2c2cnn(Cc3cc[nH]n3)c(=O)c21 [Compound 241]', 'UniProt P30613', 'pEC50', '> 6.52'),
  ('Cn1c2nc(Cc3cc[nH]n3)sc2c2cnn(Cc3ccc4oc(=O)[nH]c4n3)c(=O)c21 [Compound 386]', 'UniProt P30613', 'pEC50', '> 6.52'),
  ('Cn1ccc(CCn2ncc3c4sc(Cc5cccnc5)nc4n(C)c3c2=O)n1 [Compound 400]', 'UniProt P30613', 'pEC50', '< 6.10');

Query: Param item = Cn1c2nc(Cc3ccccn3)sc2c2cnn(CC3CCOCC3)c(=O)c21 [Compound 403] ; retrieve measured pEC50.
Result: < 6.10

Query: Request the reported pEC50 associated with Cn1ncc2cc(Cn3ncc4c5sc(Cc6cc[nH]n6)nc5n(C)c4c3=O)ccc21 [Compound 224]
Result: > 6.52

Query: Entry Cn1c2nc(Cc3cc[nH]n3)sc2c2cnn(Cc3ccc4c(F)c[nH]c4n3)c(=O)c21 [Compound 383] has what pEC50?
Result: > 6.52

Query: Would you mind telling me what pEC50 value was observed for Cn1c2nc(Cn3cccn3)sc2c2cnn(Cc3cccc4[nH]ncc34)c(=O)c21 [Compound 292] ?
Result: > 6.52

Query: pEC50; subject: Cn1cc(Cc2nc3c(s2)c2cnn(Cc4cccc(C(N)=O)c4)c(=O)c2n3C)cn1 [Compound 389]
Result: < 6.10

----------
- study-target: wild type PKR (Homo sapiens, UniProt P30613)
- Sequence (P30613 whole entry): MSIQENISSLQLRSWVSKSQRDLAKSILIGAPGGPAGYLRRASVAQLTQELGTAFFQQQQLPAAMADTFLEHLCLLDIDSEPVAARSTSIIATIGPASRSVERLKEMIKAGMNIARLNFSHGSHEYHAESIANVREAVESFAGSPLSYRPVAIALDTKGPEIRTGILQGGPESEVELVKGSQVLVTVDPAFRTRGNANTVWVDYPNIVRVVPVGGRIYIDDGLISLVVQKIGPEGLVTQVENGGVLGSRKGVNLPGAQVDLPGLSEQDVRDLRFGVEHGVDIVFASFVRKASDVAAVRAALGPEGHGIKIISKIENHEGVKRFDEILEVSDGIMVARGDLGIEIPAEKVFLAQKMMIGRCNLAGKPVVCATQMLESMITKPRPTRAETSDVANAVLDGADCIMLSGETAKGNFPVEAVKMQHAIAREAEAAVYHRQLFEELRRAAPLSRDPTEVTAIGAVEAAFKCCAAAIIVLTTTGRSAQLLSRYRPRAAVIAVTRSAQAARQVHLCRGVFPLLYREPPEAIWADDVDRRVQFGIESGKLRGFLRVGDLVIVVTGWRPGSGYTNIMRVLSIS
- method-description: PKR (wild type) enzyme AC50 assay, LDH/NADH-coupled, absorbance at 340 nm
- Format: biochemical
- condition-summary: Table 2; enzyme assay; read-out: PKR WT AC50
readout: AC50

Examples from the recorded data:
INSERT INTO measurements (molecule, study_target, readout, observed) VALUES
  ('CC(c1ccccc1)c1nc2c(s1)c1cnn(Cc3cccc4c3cnn4C)c(=O)c1n2C (centres unmarked)', 'wild type PKR (Homo sapiens, UniProt P30613)', 'AC50', '301 to 800 nM'),
  ('Cn1c2nc([S+](C)[O-])sc2c2cnn(Cc3ccnc(N)c3)c(=O)c21 (centres unmarked)', 'wild type PKR (Homo sapiens, UniProt P30613)', 'AC50', '> 800 nM'),
  ('Cc1nc2c(s1)c1cnn(Cc3cccc(N)n3)c(=O)c1n2C', 'wild type PKR (Homo sapiens, UniProt P30613)', 'AC50', '< 300 nM'),
  ('Cc1nc2c(s1)c1cnn(CCOCCO)c(=O)c1n2C', 'wild type PKR (Homo sapiens, UniProt P30613)', 'AC50', '> 800 nM'),
  ('Cn1c2nc(Cc3ccc(=O)[nH]c3)sc2c2cnn(Cc3cccc4[nH]ncc34)c(=O)c21', 'wild type PKR (Homo sapiens, UniProt P30613)', 'AC50', '> 800 nM');

Query: # get_value(readout='AC50', item= Cn1c2nc(Cc3cccc(=O)[nH]3)sc2c2cnn(Cc3cccc4[nH]ncc34)c(=O)c21 )
Result: < 300 nM

Query: Data request, read-out AC50, for Cc1nc2c(s1)c1cnn(Cc3ccc(F)cc3)c(=O)c1n2C
Result: < 300 nM

Query: So what's the measured AC50 for this one? Cn1c2nc(Cc3ccc4cn[nH]c4c3)sc2c2cnn(Cc3cccc4[nH]ncc34)c(=O)c21
Result: 301 to 800 nM

Query: Could you share which AC50 value was measured for COc1cccc(Cn2ncc3c4sc(OC)nc4n(C)c3c2=O)c1 ?
Result: < 300 nM

----------
- study-target: wild type PKR (Homo sapiens, UniProt P30613)
- method-description: Cell based ATP assay in purified red blood cells (Cell-Titer-Glo)
- Set-up: endogenous in cells; host or cells: purified red blood cells from healthy volunteers
- condition-summary: Table 2; RBCs, overnight at 37° C., ATP levels
# Lookup of reported AC50 keyed by entry

Take a look at these entries with their results.
INSERT INTO results (molecule, observed) VALUES
  ('Cn1c2nc([S+](C)[O-])sc2c2cnn(Cc3cnc(N)s3)c(=O)c21 (centres unmarked) [Compound 101]', '> 1 µM'),
  ('Cc1nc2c(s1)c1cnn(Cc3cc[nH]n3)c(=O)c1n2C [Compound 68]', '≤ 1 µM'),
  ('Cn1c2nc(Cc3cccc4[nH]ncc34)sc2c2cnn(Cc3cccc4[nH]ncc34)c(=O)c21 [Compound 143]', '> 1 µM');

Query: Entry Cc1nc2c(s1)c1cnn(Cc3cccc4c3cnn4C)c(=O)c1n2C [Compound 76] has what AC50?
Result: ≤ 1 µM

Query: If you can, please state the reported AC50 value of C=Cc1nc2c(s1)c1cnn(Cc3cccc4[nH]ncc34)c(=O)c1n2C [Compound 104] .
Result: > 1 µM

Query: What value of measured AC50 is listed for Cc1nc2c(s1)c1cnn(Cc3cccc(O)c3)c(=O)c1n2C [Compound 7] ?
Result: ≤ 1 µM
